- Test system: LOX IMVI melanoma
- ASSAY INFO: NCI tumour cell line growth inhibition, 48 h
*1 amine or outer side, *2 acyl side, *3 side chain or, on linkers, in order; H or OH if unused. Where a SMILES comes first, the peptide text is derived from it. Bridges are numbered along the chain shown (N, C = ends). Roman numbers before positions name the chains, in order. [ ]: non-standard residue; d: D form. Actinocin(9to1) = Cc1c2oc3c(C)ccc(C(=O)[*:1])c3nc-2c(C(=O)[*:2])c(N)c1=O; NMeV = CN[CH](C(=O)O)C(C)C; Sar = CNCC(=O)O
ASSAY METRIC: TGI

* COc1ccc(C2C3=CONC3CC3CCCCC32)cc1 (stereo not drawn) | > 100 µM
* CCCCN(CCCC)C1=Nc2ccccc2-n2c(nnc2C(=O)OCC)C1 | > 100 µM
* COC(C[C@H]1CCCC[C@]1(O)/C(=C\CO[Si](C(C)C)(C(C)C)C(C)C)Sc1ccccc1)OC | 37.5 µM
* C=C(C)[C@@H]1CC[C@]2(C(=O)OC3OC(COC4OC(CO)C(OC5OC(C)C(O)C(O)C5O)C(O)C4O)C(O)C(O)C3O)CC[C@]3(C)[C@H](CC[C@@H]4[C@@]5(C)CC[C@H](O)[C@@](C)(CO)[C@@H]5CC[C@]43C)[C@@H]12 (stereo partly drawn) | > 8.27 µM
* CC(=O)c1cc(S(=O)(=O)c2ccc(O)c(C(C)=O)c2)ccc1O | > 100 µM
* C/C(=C\COP(=O)(O)OP(=O)(O)O)CC/C=C(\C)CNc1ccccc1 | > 50 µM
* Cc1cn(C2CC(F)C(CO)O2)c(=O)[nH]c1=O (stereo not drawn) | > 100 µM
* Cc1c2oc3c(C)ccc(C(=O)NC4C(=O)NC(Cc5ccc(O)cc5)C(=O)N5CCCC5C(=O)N(C)CC(=O)N(C)C(C(C)C)C(=O)OC4C)c3nc-2c(C(=O)NC2C(=O)NC(Cc3ccc(O)cc3)C(=O)N3CCCC3C(=O)N(C)CC(=O)N(C)C(C(C)C)C(=O)OC2C)c(N)c1=O (stereo not drawn) (I: TYP[Sar][NMeV] / II: TYP[Sar][NMeV]; ester I:1-I:C, II:1-II:C; linker I:N-II:N via Actinocin(9to1); configuration not given here) | 19.9 µM
* CC(=O)OC[C@H]1O[C@@H](n2ccc(=O)[nH]c2=O)[C@H](OC(C)=O)[C@@H]1OC(C)=O | > 100 µM
* Cc1ccc2c(c1)nc(C(=O)c1ccco1)c(C(F)(F)F)[n+]2[O-] | > 100 µM
* [N-]=[N+]=NC(c1cn(C2CC(O)C(CO)O2)c(=O)[nH]c1=O)C(Br)I (stereo not drawn) | > 100 µM
* COc1cccc(OC/C(N=Cc2ccncc2)=N/NC(=O)c2ccncc2)c1 | > 100 µM
* [Cl][Bi]([O]c1ccccn1)[O]c1ccccn1 | > 100 µM
* CCC(=O)Nc1ccc(N2C(=O)/C(=C/c3ccc(O)c(OC)c3)N=C2c2ccccc2)cc1 | > 100 µM
* CC12CCC3C(CC=C4CC(O)CCC43C)C1C/C(=C\N1CCCC1)C2=O (stereo not drawn) | > 100 µM
* COc1ccc(C[C@H]2COC(=O)[C@@H]2Cc2ccccc2)cc1OC | > 100 µM
* Clc1ccc(-n2nnc(C3=NCCN3)c2-c2ccccc2)cc1 | > 100 µM
* COCCN(C(=O)c1ccccc1)C1CCC(=O)c2[nH]c3ccccc3c21 (stereo not drawn) | > 39.4 µM
* CCOC(=O)NC(OCc1ccccc1)(C(=O)OC)C(F)(F)F (stereo not drawn) | > 100 µM
* CCOC(=O)c1c(SCCN2CCCCC2)n(-c2ccccc2)c(=S)n(-c2ccccc2)c1=O | 26.2 µM
* Cc1c(N=Nc2ccc([N+](=O)[O-])cc2)nc2scc(-c3ccccc3)n12 | > 100 µM
* Cc1cccc(C(C)(C)C)c1NC(=O)C(=O)C(C(=O)/C=C\c1ccccc1)C1OC(=O)c2ccccc21 (stereo not drawn) | > 100 µM
* C1CC[N-]CC1.C1CC[N-]CC1.C1CC[N-]CC1.C1CC[N-]CC1.[Cl][Rh][Cl] | > 100 µM
* Cc1ccc(C(CN(C)C)C(=O)c2ccccc2)cc1 (stereo not drawn) | 2.27 µM
* CC1Cc2c(cc(N)nc2Br)NC1=O (stereo not drawn) | > 100 µM
* CCCOC1OC(CS(=O)(=O)O)C(OC(C)=O)C(OC(C)=O)C1OC(C)=O (stereo not drawn) | > 100 µM
* CC(C)CCCC(C)[C@H]1CC[C@H]2NCCCC[C@]12C (stereo partly drawn) | 4.23 µM
* CCCCCCCCCCC/C(=N/O)c1ccc(O)c2ncccc12 | 13.6 µM
* CC(C)(C)N1CCC1C(N)=O (stereo not drawn) | > 100 µM
* Cn1c(=O)[nH]n(-c2ccc3ccccc3c2)c1=O | > 100 µM
* Cc1ccc(Cl)c2c(=O)cc(-c3ccccc3)[nH]c12 | > 100 µM
* CN1C(=O)C(CCO)(C(C)(C)C)c2ccccc21 (stereo not drawn) | > 100 µM
* O=c1cccc(C#CC#C[C@H]2O[C@@H]2CO)o1 | 0.901 µM
* O=C1CCC(Cc2ccc(Cl)cc2Cl)C(=O)N1 (stereo not drawn) | > 100 µM
* O=C(O)c1cc2ccccc2c(O)c1O | 14.9 µM
* CC(O)/C=C/C(CCC(C)CO)C(C)C (stereo not drawn) | > 100 µM
* C#Cc1cccc(Nc2ncnc3cc(OCCOC)c(OCCOC)cc23)c1 | > 100 µM
* CC[C@]1(O)CC2CN(CCc3c([nH]c4ccccc34)[C@@](C(=O)OC)(c3cc4c(cc3OC)N(C)[C@H]3[C@@](O)(C(=O)OC)[C@H](OC(C)=O)[C@]5(CC)C=CCN6CC[C@]43[C@@H]65)C2)C1 (stereo partly drawn) | 8.01 µM
